Target: Cyclin-dependent kinase 2 (Homo sapiens)
Test: Binding affinity to N-terminal His-tagged human CDK2 expressed in Escherichia coli BL21-AI by STD-NMR analysis
Calls of active or inactive are those of the source. No cut-off for these calls is given here.
Hi there, use one of these labels in your reply, thanks! active, inactive

CHEMICAL_STRUCTURE	MEASURED_ON	ANSWER_LABEL
c1ccc(CNc2ncnc3[nH]cnc23)cc1	Cyclin-dependent kinase 2 (Homo sapiens)	active
Cc1ccc(Cn2cc(-n3c(-c4ccc(Cn5cccn5)cc4)n[nH]c3=S)cn2)cc1	Cyclin-dependent kinase 2 (Homo sapiens)	inactive
O=S(=O)(c1cccc2cnccc12)N1CCCNCC1	Cyclin-dependent kinase 2 (Homo sapiens)	active

Which outcome was entered for the compound CC(C)=CCNc1ncnc2[nH]cnc12 in this test?
active

Let us now turn to Cc1ccc(Cn2cc(-n3c(-c4ccc(Cn5nc(C)cc5C)o4)n[nH]c3=S)cn2)cc1
inactive
